Recorded measurements of IC50, one per entry
Biological target: human acetyl-CoA carboxylase 2 (ACC2) (Homo sapiens, UniProt O00763)
Construct: The cDNA encoding amino acids 144 to 2458 of human acetyl-CoA carboxylase 2; made in house; host or cells: Sf9 insect cells (baculovirus, pFastBac1)
Sequence (O00763 144-2458): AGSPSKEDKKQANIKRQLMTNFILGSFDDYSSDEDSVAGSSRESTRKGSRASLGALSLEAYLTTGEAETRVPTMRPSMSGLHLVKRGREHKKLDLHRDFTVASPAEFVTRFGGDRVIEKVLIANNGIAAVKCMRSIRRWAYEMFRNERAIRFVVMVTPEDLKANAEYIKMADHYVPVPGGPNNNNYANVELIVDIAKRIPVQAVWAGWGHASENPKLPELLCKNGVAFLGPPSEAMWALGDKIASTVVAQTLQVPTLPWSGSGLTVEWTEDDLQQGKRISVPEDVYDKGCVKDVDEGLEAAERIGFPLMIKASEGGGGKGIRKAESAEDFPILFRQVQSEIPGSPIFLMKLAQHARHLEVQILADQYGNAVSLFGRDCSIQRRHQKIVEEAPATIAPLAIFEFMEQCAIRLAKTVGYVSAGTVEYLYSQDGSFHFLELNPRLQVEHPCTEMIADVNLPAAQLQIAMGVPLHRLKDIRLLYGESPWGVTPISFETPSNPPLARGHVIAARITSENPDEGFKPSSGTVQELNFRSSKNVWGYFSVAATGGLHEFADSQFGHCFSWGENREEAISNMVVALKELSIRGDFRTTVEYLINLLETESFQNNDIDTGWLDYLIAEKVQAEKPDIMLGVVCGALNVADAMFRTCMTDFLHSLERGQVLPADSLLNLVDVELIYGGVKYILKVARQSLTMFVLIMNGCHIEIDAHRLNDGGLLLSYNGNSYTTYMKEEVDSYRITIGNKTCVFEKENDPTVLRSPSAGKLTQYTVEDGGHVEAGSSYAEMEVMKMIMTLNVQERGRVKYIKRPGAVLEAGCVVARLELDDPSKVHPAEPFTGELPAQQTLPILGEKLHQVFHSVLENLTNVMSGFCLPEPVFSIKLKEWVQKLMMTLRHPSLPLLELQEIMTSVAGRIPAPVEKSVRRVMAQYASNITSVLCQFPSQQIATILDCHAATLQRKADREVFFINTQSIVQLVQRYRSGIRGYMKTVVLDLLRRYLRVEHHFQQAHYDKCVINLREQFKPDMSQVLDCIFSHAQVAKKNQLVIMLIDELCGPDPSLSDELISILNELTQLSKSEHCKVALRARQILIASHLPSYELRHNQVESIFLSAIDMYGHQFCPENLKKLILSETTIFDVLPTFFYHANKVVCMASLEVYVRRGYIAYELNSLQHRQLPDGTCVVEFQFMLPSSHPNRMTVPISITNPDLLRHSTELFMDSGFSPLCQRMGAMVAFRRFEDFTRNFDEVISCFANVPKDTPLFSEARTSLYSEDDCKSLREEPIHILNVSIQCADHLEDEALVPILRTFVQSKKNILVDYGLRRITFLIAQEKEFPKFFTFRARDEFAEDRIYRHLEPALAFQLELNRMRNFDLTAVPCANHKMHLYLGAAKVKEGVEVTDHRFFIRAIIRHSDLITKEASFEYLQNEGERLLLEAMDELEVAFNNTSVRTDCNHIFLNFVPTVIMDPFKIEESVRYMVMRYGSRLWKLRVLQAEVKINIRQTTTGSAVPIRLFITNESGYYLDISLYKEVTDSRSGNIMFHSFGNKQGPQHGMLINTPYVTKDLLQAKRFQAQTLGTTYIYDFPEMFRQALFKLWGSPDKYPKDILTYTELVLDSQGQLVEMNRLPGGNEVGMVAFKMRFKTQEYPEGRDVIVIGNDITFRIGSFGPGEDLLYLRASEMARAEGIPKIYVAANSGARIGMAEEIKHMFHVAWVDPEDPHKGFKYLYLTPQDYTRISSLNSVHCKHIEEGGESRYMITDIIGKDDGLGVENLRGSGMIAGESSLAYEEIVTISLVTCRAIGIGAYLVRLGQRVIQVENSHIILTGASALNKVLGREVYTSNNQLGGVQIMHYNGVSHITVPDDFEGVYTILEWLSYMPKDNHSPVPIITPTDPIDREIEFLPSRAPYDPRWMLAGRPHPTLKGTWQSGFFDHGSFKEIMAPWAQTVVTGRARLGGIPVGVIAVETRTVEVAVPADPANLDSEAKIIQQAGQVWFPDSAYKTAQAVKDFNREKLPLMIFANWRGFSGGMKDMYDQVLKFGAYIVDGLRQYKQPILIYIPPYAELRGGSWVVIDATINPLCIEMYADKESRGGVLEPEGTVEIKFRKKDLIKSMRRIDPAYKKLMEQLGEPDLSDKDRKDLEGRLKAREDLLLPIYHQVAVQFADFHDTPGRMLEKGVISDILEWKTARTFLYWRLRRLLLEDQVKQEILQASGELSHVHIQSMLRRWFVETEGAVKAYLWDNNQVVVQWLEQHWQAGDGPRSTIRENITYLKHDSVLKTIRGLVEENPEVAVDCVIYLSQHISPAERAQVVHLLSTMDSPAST
Assay: Acetyl-CoA carboxylase enzyme assay (malonyl-CoA formation by LC/MS/MS)
Type: biochemical
Settings: recombinant human ACC2 (aa 144-2458); read-out: IC50 ACC2
Result type: IC50 (nM)

[[record]]
molecule = "CC(C)OC(=O)c1ccc(NS(=O)(=O)c2ccc3[nH]c(Nc4ccccc4F)nc3c2)cc1"
system = "human acetyl-CoA carboxylase 2 (ACC2) (Homo sapiens, UniProt O00763)"
value_unit = "nM"
limit_operator = "="
result_number = 845

[[record]]
molecule = "O=C([C@H]1CC[C@H](NS(=O)(=O)c2ccc3c(Cl)c(-c4ccccc4)[nH]c3c2)CC1)N1CCOC[C@@H]1C1CC1"
system = "human acetyl-CoA carboxylase 2 (ACC2) (Homo sapiens, UniProt O00763)"
value_unit = "nM"
limit_operator = "<"
result_number = 10

[[record]]
molecule = "O=C([C@H]1CC[C@H](NS(=O)(=O)c2ccc3c(c2)CCCN3)CC1)N1CCOCC1c1ccccc1 (stereo partly shown)"
system = "human acetyl-CoA carboxylase 2 (ACC2) (Homo sapiens, UniProt O00763)"
value_unit = "nM"
limit_operator = "="
result_number = 90

[[record]]
molecule = "C[C@@H](NC(=O)[C@H]1CC[C@H](NS(=O)(=O)c2ccc3c(c2)C(NC(=O)C(F)(F)F)CCN3C(=O)C(F)(F)F)CC1)c1ccc(F)cc1 (stereo partly shown)"
system = "human acetyl-CoA carboxylase 2 (ACC2) (Homo sapiens, UniProt O00763)"
value_unit = "nM"
limit_operator = ">"
result_number = 35000

[[record]]
molecule = "COc1ccc(Nc2nc3cc(S(=O)(=O)N[C@H]4CC[C@H](c5nnc(C(C)C)o5)CC4)ccc3[nH]2)cc1"
system = "human acetyl-CoA carboxylase 2 (ACC2) (Homo sapiens, UniProt O00763)"
value_unit = "nM"
limit_operator = "="
result_number = 202

[[record]]
molecule = "Cc1ccc(C)c(-c2cc3ccc(S(=O)(=O)N[C@H]4CC[C@H](C(=O)N[C@H](C)c5ccc(F)cc5)CC4)cc3[nH]2)c1"
system = "human acetyl-CoA carboxylase 2 (ACC2) (Homo sapiens, UniProt O00763)"
value_unit = "nM"
limit_operator = "="
result_number = 24

[[record]]
molecule = "O=C([C@H]1CC[C@H](NS(=O)(=O)c2ccc3cc(-c4ccccc4C(F)(F)F)[nH]c3c2)CC1)N1CCNC[C@@H]1c1ccccc1"
system = "human acetyl-CoA carboxylase 2 (ACC2) (Homo sapiens, UniProt O00763)"
value_unit = "nM"
limit_operator = "="
result_number = 65

[[record]]
molecule = "C[C@@H](NC(=O)[C@H]1CC[C@H](NS(=O)(=O)c2ccc3nc(C4CCOCC4)[nH]c3c2)CC1)c1ccc(F)cc1"
system = "human acetyl-CoA carboxylase 2 (ACC2) (Homo sapiens, UniProt O00763)"
value_unit = "nM"
limit_operator = "="
result_number = 156

[[record]]
molecule = "CCOc1ccc2cc(S(=O)(=O)N[C@H]3CC[C@H](C(=O)N4CCNC[C@@H]4C(=O)O)CC3)ccc2n1"
system = "human acetyl-CoA carboxylase 2 (ACC2) (Homo sapiens, UniProt O00763)"
value_unit = "nM"
limit_operator = ">"
result_number = 35000

[[record]]
molecule = "C[C@@H]1COCCN1C(=O)[C@H]1CC[C@H](NS(=O)(=O)c2ccc3c(C#N)c(C4CC4)n(C)c3c2)CC1"
system = "human acetyl-CoA carboxylase 2 (ACC2) (Homo sapiens, UniProt O00763)"
value_unit = "nM"
limit_operator = "="
result_number = 50

[[record]]
molecule = "CC(C)OC(=O)c1ccc(NS(=O)(=O)c2ccc3[nH]c(Nc4ccc(N5CCOCC5)cc4)nc3c2)cc1"
system = "human acetyl-CoA carboxylase 2 (ACC2) (Homo sapiens, UniProt O00763)"
value_unit = "nM"
limit_operator = "="
result_number = 109

[[record]]
molecule = "C[C@@H]1CCCN1C(=O)[C@H]1CC[C@H](NS(=O)(=O)c2ccc3[nH]c(-c4ccccc4)nc3c2)CC1"
system = "human acetyl-CoA carboxylase 2 (ACC2) (Homo sapiens, UniProt O00763)"
value_unit = "nM"
limit_operator = "="
result_number = 58

[[record]]
molecule = "Cc1cc(CO)ccc1-c1cc2ccc(S(=O)(=O)N[C@H]3CC[C@H](C(=O)N[C@H](C)c4ccc(F)cc4)CC3)cc2[nH]1"
system = "human acetyl-CoA carboxylase 2 (ACC2) (Homo sapiens, UniProt O00763)"
value_unit = "nM"
limit_operator = "<"
result_number = 10

